target.desc: HLA-B*51:01
procedure.summary: IEDB peptide-MHC binding, purified MHC/competitive/fluorescence; filed as Kd, often an IC50 or EC50 that approximates it; bounds were set here for any values at or beyond the usual limits of such assays
recorded.conditions: source organism: Vibrio antiquarius
readout.type: Kd

Record request: Kd value, item VTGCASLYV
≥ 20 µM

---

target.desc: HLA-B*48:01
procedure.summary: IEDB peptide-MHC binding, purified MHC/direct/fluorescence; filed as Kd, often an IC50 or EC50 that approximates it; bounds were set here for any values at or beyond the usual limits of such assays
recorded.conditions: source organism: Vibrio cholerae
pKd: −log10 of the molar value.
readout.type: pKd

Give the measured pKd of REVFDYLLP .
≤ 4.70
